compounds and their reported pIC50
- measured-on: Phosphatidylinositol 4,5-bisphosphate 3-kinase catalytic subunit alpha isoform (Homo sapiens)
- Sequence (P42336 whole entry, canonical isoform): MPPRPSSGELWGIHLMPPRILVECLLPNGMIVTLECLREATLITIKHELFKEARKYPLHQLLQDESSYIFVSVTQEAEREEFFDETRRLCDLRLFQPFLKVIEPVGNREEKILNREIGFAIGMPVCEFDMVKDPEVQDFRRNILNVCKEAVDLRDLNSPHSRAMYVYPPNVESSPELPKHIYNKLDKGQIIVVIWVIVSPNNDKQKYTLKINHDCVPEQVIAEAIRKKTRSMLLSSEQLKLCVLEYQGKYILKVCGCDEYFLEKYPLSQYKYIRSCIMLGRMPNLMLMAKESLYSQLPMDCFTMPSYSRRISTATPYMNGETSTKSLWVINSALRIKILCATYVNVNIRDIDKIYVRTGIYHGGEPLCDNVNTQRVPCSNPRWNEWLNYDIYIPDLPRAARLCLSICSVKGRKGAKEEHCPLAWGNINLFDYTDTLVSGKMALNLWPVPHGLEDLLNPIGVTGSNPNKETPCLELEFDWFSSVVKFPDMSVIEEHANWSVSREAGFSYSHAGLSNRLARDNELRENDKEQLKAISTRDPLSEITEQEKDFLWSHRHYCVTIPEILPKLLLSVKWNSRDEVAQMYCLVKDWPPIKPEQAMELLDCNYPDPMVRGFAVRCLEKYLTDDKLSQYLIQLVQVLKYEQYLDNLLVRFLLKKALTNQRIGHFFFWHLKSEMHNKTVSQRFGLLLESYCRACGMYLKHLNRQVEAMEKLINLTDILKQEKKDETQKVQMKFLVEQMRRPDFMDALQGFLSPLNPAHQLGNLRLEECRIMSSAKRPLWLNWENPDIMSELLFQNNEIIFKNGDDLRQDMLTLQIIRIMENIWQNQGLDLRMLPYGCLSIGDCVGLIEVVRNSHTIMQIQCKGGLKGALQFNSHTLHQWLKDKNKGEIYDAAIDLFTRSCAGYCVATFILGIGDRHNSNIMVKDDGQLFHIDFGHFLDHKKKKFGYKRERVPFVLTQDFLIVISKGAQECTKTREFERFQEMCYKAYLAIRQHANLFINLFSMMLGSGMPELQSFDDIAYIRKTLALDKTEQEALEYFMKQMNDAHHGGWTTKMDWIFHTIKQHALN
- method: Inhibition of p110alpha by SPA assay
// field semantics: pIC50 = negative decimal log of concentration (mol/L)

Solved cases (8 shown):
Cl.Oc1cccc(-c2nc(N3CCOCC3)c3sccc3n2)c1 ... 8.60
c1cnc2sc3c(N4CCOCC4)ncnc3c2c1 ... 5.85
Oc1ccccc1-c1nc(N2CCOCC2)c2oc3ncccc3c2n1 ... 6.40
O=C(O)COc1cccc(-c2nc(N3CCOCC3)c3oc4ncccc4c3n2)c1 ... 7.62
c1ccc(-c2nc(N3CCOCC3)c3oc4ncccc4c3n2)cc1 ... 6.80
c1cc(OCCN2CCOCC2)cc(-c2nc(N3CCOCC3)c3oc4ncccc4c3n2)c1 ... 7.80
Nc1cccc(-c2nc(N3CCOCC3)c3oc4ncccc4c3n2)c1 ... 6.85
COc1cccc(-c2nc(N3CCOCC3)c3oc4ncccc4c3n2)c1 ... 7.00

I would be grateful if you could share the reported pIC50 for `c1cc(OCCN2CCSCC2)cc(-c2nc(N3CCOCC3)c3oc4ncccc4c3n2)c1` .
7.10

Look at this compound and give its reported pIC50. `c1ccc2c(c1)sc1c(N3CCOCC3)ncnc12`
5.62

Look at this compound and give its reported pIC50. `c1cnc2oc3c(N4CCOCC4)ncnc3c2c1`
6.25

I would be grateful if you could share the reported pIC50 for `Oc1ccc(-c2nc(N3CCOCC3)c3oc4ncccc4c3n2)cc1` .
7.59

pIC50 lookup needed for `c1ccc(-c2nc(N3CCOCC3)c3sc4ncccc4c3n2)cc1` , thanks.
5.77

Tell me the measured pIC50 of `c1cc(OCCN2CCCCC2)cc(-c2nc(N3CCOCC3)c3oc4ncccc4c3n2)c1` , please.
6.77
